- protocolDetails: Pharmacokinetic crossover trial: 2 mg sublingual tablet vs 4 mg commercial oral tizanidine (Zanaflex), plasma tizanidine by HPLC
- Format: in vivo
- conditionDetails: human, po, 4 mg
quantityKind: concentration at 0 h

Q. Which measured concentration at 0 h value corresponds to Clc1ccc2nsnc2c1NC1=NCCN1 ?
A. < 98.4 ng/g
